# measured-target: T1, Factor VIIIa (FVIIIa), from recombinant FVIII (Kogenate FS; Bayer healthcare) activated with alpha-thrombin (UniProt P00451 20-2351)
# T1 sequence (looked up): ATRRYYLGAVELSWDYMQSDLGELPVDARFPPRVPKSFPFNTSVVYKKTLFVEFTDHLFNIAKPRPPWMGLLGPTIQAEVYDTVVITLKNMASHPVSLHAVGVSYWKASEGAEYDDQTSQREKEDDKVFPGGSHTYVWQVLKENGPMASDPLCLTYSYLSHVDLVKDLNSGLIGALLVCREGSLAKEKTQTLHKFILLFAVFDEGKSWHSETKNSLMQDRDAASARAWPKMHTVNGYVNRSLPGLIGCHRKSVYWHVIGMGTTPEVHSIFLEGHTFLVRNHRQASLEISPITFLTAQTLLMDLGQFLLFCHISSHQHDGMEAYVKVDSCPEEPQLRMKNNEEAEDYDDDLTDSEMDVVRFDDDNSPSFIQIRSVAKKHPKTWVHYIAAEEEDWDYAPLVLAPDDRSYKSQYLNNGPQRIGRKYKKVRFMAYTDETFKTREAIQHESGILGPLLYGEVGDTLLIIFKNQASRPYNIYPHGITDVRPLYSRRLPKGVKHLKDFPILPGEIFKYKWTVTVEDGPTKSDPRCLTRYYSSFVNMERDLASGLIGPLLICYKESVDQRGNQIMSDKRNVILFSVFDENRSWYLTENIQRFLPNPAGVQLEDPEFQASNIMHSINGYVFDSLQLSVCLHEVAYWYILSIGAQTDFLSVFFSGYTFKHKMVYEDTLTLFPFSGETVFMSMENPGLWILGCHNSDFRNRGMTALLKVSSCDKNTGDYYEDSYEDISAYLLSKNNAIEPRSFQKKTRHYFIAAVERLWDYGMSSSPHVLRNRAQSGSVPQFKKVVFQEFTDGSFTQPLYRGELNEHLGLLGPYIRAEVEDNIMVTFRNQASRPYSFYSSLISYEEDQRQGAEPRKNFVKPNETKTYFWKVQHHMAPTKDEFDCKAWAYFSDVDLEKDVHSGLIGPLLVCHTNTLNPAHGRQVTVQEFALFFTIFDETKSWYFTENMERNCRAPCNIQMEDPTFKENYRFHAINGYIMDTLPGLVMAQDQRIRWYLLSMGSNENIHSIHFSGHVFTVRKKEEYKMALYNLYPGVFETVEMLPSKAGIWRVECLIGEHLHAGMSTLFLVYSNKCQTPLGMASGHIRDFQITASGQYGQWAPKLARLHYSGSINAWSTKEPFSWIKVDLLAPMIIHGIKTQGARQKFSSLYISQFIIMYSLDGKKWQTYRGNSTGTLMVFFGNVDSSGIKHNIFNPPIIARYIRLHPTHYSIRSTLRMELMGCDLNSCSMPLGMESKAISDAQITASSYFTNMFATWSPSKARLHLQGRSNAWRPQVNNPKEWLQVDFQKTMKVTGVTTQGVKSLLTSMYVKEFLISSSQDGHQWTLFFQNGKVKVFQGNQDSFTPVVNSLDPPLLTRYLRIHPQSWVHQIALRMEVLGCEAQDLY
# assay-details: ratio of KD-app of Catalyst Biosciences WT FIXa to KD-app of the variant, same Xase assay
measured-quantity: KD-WT/KD-mut (fold)
Express the result in fold but write the number alone.

Ask | Quick check: KD-WT/KD-mut of FIXa variant I251S/R318Y/R338E/E410N (enzyme, also called I86S/R150Y/R170E/E240N; I251S/R318Y/E410N/R338E) light: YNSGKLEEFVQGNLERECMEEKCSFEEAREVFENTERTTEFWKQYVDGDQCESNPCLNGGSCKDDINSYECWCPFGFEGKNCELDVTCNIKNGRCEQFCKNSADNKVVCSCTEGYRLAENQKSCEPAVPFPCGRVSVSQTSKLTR heavy: VVGGEDAKPGQFPWQVVLNGKVDAFCGGSIVNEKWIVTAAHCVETGVKITVVAGEHNIEETEHTEQKRNVSRIIPHHNYNAAINKYNHDIALLELDEPLVLNSYVTPICIADKEYTNIFLKFGSGYVSGWGRVFHKGYSALVLQYLRVPLVDRATCLESTKFTIYNNMFCAGFHEGGRDSCQGDSGGPHVTEVEGTSFLTGIISWGEECAMKGKYGIYTKVSRYVNWIKNKTKLT ?
Reply | 16.7
